Reported inhibition at 1 µM values are given for each entry in this list.
Target: human recombinant dopamine D2L receptor (Homo sapiens)
Construct: expressed in transfected cells; host or cells: CHO cells
Sequence (P14416 whole entry): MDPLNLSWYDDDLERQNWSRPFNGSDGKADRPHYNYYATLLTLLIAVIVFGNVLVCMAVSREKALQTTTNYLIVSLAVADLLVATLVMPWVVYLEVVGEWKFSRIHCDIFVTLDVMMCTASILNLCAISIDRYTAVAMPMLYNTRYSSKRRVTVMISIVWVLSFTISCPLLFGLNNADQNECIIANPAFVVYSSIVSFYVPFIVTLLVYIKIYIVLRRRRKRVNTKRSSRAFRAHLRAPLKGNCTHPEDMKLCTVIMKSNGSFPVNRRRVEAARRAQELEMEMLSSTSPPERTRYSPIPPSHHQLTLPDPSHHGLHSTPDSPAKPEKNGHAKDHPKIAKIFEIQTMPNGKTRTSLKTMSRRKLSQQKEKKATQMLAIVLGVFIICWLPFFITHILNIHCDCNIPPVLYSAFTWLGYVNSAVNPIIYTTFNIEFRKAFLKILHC
Experiment: Dopamine D2L radioligand binding ([3H]Spiperone)
Conditions: compound at 1 μM; read-out: Dopamine (1 μM) D2L, percent inhibition of specific binding

Molecule: C=C(Cn1c2c(c3cc(Cl)ccc31)CCN(C)CC2)c1ccc(Cl)cc1
Measured On: human recombinant dopamine D2L receptor (Homo sapiens)
inhibition at 1 µM, %: 50
//
Molecule: Cc1ccc2c(c1)c1c(n2CCc2ccc(C(=O)O)nc2)CCN(C)CC1
Measured On: human recombinant dopamine D2L receptor (Homo sapiens)
inhibition at 1 µM, %: -11
//
Molecule: C=C(Cn1c2c(c3cc(Cl)ccc31)CCN(C)CC2)c1ccc(F)cc1
Measured On: human recombinant dopamine D2L receptor (Homo sapiens)
inhibition at 1 µM, %: 90
//
Molecule: Cc1ccc2c(c1)c1c(n2C(=O)Cc2ccc(F)cc2)CCN(C)CC1
Measured On: human recombinant dopamine D2L receptor (Homo sapiens)
inhibition at 1 µM, %: 21
//
Molecule: CN1CCc2c(n(CC(=O)N(C)C3CCCCC3)c3ccc(Cl)cc23)CC1
Measured On: human recombinant dopamine D2L receptor (Homo sapiens)
inhibition at 1 µM, %: -2
//
Molecule: CN1CCc2c(n(CC(=O)OCc3ccccc3)c3ccc(Cl)cc23)CC1
Measured On: human recombinant dopamine D2L receptor (Homo sapiens)
inhibition at 1 µM, %: 2
//
Molecule: Cc1ccc2c(c1)c1c(n2CC(O)c2ccc(F)cc2)CCN(C)CC1 (centres unmarked)
Measured On: human recombinant dopamine D2L receptor (Homo sapiens)
inhibition at 1 µM, %: 20
//
Molecule: C/C(=C\n1c2c(c3cc(Cl)ccc31)CCN(C)CC2)c1cccnc1
Measured On: human recombinant dopamine D2L receptor (Homo sapiens)
inhibition at 1 µM, %: 14
//
Molecule: C/C(=C\n1c2c(c3cc(C)ccc31)CCN(C)CC2)c1ccc(F)c(F)c1
Measured On: human recombinant dopamine D2L receptor (Homo sapiens)
inhibition at 1 µM, %: 25
//
Molecule: CN1CCc2c(n(CCc3ccccc3F)c3ccccc23)CC1
Measured On: human recombinant dopamine D2L receptor (Homo sapiens)
inhibition at 1 µM, %: 50
//
Molecule: CN1CCc2c(n(/C=C/c3ccccc3F)c3ccc(Cl)cc23)CC1
Measured On: human recombinant dopamine D2L receptor (Homo sapiens)
inhibition at 1 µM, %: 61
//
Molecule: Cc1ccc2c(c1)c1c(n2CC(O)c2ccncc2)CCN(C)CC1 (centres unmarked)
Measured On: human recombinant dopamine D2L receptor (Homo sapiens)
inhibition at 1 µM, %: 4
//
Molecule: CN1CCc2c(n(/C=C/c3ccc(F)cc3)c3ccc(Cl)cc23)CC1
Measured On: human recombinant dopamine D2L receptor (Homo sapiens)
inhibition at 1 µM, %: 71
//
Molecule: CN1CCc2c(n(CC(O)c3cccnc3)c3ccc(Cl)cc23)CC1 (centres unmarked)
Measured On: human recombinant dopamine D2L receptor (Homo sapiens)
inhibition at 1 µM, %: 3
//
Molecule: Cc1ccc2c(c1)c1c(n2CC(O)c2ccccc2F)CCN(C)CC1 (centres unmarked)
Measured On: human recombinant dopamine D2L receptor (Homo sapiens)
inhibition at 1 µM, %: 34
//
Molecule: C/C(=C\n1c2c(c3cc(Cl)ccc31)CCN(C)CC2)c1ccc(F)cc1
Measured On: human recombinant dopamine D2L receptor (Homo sapiens)
inhibition at 1 µM, %: 97
//
Molecule: CN1CCc2c(n(CCc3ccccn3)c3ccc(Cl)cc23)CC1
Measured On: human recombinant dopamine D2L receptor (Homo sapiens)
inhibition at 1 µM, %: 42
//
Molecule: COc1ccc(C(O)Cn2c3c(c4cc(C)ccc42)CCN(C)CC3)cc1F (centres unmarked)
Measured On: human recombinant dopamine D2L receptor (Homo sapiens)
inhibition at 1 µM, %: 40
//
Molecule: C/C(=C/n1c2c(c3cc(Cl)ccc31)CCN(C)CC2)c1cccc(F)c1
Measured On: human recombinant dopamine D2L receptor (Homo sapiens)
inhibition at 1 µM, %: 35
//
Molecule: Cc1ccc2c(c1)c1c(n2CCc2cncc(Cl)c2)CCN(C)CC1
Measured On: human recombinant dopamine D2L receptor (Homo sapiens)
inhibition at 1 µM, %: 2
//
Molecule: COc1ccc(C(O)Cn2c3c(c4cc(Cl)ccc42)CCN(C)CC3)cc1F (centres unmarked)
Measured On: human recombinant dopamine D2L receptor (Homo sapiens)
inhibition at 1 µM, %: 50
//
Molecule: Cc1ccc(C(O)Cn2c3c(c4cc(C)ccc42)CCN(C)CC3)cc1 (centres unmarked)
Measured On: human recombinant dopamine D2L receptor (Homo sapiens)
inhibition at 1 µM, %: 58
//
Molecule: Cc1ccc2c(c1)c1c(n2CCc2ccccc2Cl)CCN(C)CC1
Measured On: human recombinant dopamine D2L receptor (Homo sapiens)
inhibition at 1 µM, %: -2
//
Molecule: C/C(=C\n1c2c(c3cc(Cl)ccc31)CCN(C)CC2)c1ccc(F)c(F)c1
Measured On: human recombinant dopamine D2L receptor (Homo sapiens)
inhibition at 1 µM, %: 38
//
Molecule: Cc1ccc2c(c1)c1c(n2CC(O)c2ccc(F)cc2F)CCN(C)CC1 (centres unmarked)
Measured On: human recombinant dopamine D2L receptor (Homo sapiens)
inhibition at 1 µM, %: 20
//
Molecule: Cc1ccc2c(c1)c1c(n2CC(=O)NC2CCCCC2)CCN(C)CC1
Measured On: human recombinant dopamine D2L receptor (Homo sapiens)
inhibition at 1 µM, %: 0
//
Molecule: Cc1ccc2c(c1)c1c(n2CCc2ccc(C(F)(F)F)nc2)CCN(C)CC1
Measured On: human recombinant dopamine D2L receptor (Homo sapiens)
inhibition at 1 µM, %: 13
//
Molecule: COc1ccc(C(O)Cn2c3c(c4cc(Cl)ccc42)CCN(C)CC3)cc1OC (centres unmarked)
Measured On: human recombinant dopamine D2L receptor (Homo sapiens)
inhibition at 1 µM, %: 16
//
Molecule: COc1ccc(/C(C)=C/n2c3c(c4cc(C)ccc42)CCN(C)CC3)cc1
Measured On: human recombinant dopamine D2L receptor (Homo sapiens)
inhibition at 1 µM, %: 19
//
Molecule: Cc1ccc2c(c1)c1c(n2/C=C/c2ccc(F)cc2)CCN(C)CC1
Measured On: human recombinant dopamine D2L receptor (Homo sapiens)
inhibition at 1 µM, %: 66
//
Molecule: Cc1ccc2c(c1)c1c(n2CC(=O)Nc2ccc(F)cc2)CCN(C)CC1
Measured On: human recombinant dopamine D2L receptor (Homo sapiens)
inhibition at 1 µM, %: -8
//
Molecule: CN1CCc2c(n(CCc3ccccc3)c3ccc(Cl)cc23)CC1
Measured On: human recombinant dopamine D2L receptor (Homo sapiens)
inhibition at 1 µM, %: 62
//
Molecule: CN1CCc2c(n(CC(=O)Nc3ccc(F)cc3)c3ccc(Cl)cc23)CC1
Measured On: human recombinant dopamine D2L receptor (Homo sapiens)
inhibition at 1 µM, %: 9
//
Molecule: C/C(=C\n1c2c(c3cc(C)ccc31)CCN(C)CC2)c1ccc(Cl)cc1
Measured On: human recombinant dopamine D2L receptor (Homo sapiens)
inhibition at 1 µM, %: 35
//
Molecule: C/C(=C\n1c2c(c3cc(Cl)ccc31)CCN(C)CC2)c1ccccc1F
Measured On: human recombinant dopamine D2L receptor (Homo sapiens)
inhibition at 1 µM, %: 32
